measurement-target: UniProt Q5S007
method-summary: Enzymatic activity inhibition against LRRK2 WT (ADP-Glo kinase assay, LRRKtide substrate)
study-conditions: recombinant LRRK2 WT 36 nM, ATP, 1 h at rt, average Ki
pKi: −log10 of the molar value.
Reported pKi by item:

Use the examples below as a reference point.
{"compound": "CC(C)Oc1ccc2[nH]nc(-c3cnnc(N4CC(O)C4)c3)c2c1", "pKi": "7.70 to 8.00"}
{"compound": "CCn1nc(-c2n[nH]c3ccc(OC(C)C)cc23)cc(N2CCOCC2)c1=O", "pKi": "≥ 8.00"}
{"compound": "Cc1c(OC(C)C)ccc2[nH]nc(-c3cc(N4CCOCC4)c(=O)n(C)n3)c12", "pKi": "< 7.00"}
{"compound": "Cn1nc(-c2n[nH]c3ccc(S(C)(=O)=O)cc23)cc(N2CCOCC2)c1=O", "pKi": "7.00 to 7.30"}
{"compound": "Cn1nc(-c2n[nH]c3ccc(OC4(C)CC4)cc23)cc(N2CC(C)(C)C3COCC32)c1=O (stereo not shown)", "pKi": "≥ 8.00"}

Now turn to the next compound.
# lookup: pKi of N#CC1(c2ccc3cnn(-c4cnnc(N5CCCC5)c4)c3c2)CCCC1
7.30 to 7.70

---

measurement-target: LRRK2 WT (Homo sapiens)
Sequence (Q5S007 970-2527 limits assumed): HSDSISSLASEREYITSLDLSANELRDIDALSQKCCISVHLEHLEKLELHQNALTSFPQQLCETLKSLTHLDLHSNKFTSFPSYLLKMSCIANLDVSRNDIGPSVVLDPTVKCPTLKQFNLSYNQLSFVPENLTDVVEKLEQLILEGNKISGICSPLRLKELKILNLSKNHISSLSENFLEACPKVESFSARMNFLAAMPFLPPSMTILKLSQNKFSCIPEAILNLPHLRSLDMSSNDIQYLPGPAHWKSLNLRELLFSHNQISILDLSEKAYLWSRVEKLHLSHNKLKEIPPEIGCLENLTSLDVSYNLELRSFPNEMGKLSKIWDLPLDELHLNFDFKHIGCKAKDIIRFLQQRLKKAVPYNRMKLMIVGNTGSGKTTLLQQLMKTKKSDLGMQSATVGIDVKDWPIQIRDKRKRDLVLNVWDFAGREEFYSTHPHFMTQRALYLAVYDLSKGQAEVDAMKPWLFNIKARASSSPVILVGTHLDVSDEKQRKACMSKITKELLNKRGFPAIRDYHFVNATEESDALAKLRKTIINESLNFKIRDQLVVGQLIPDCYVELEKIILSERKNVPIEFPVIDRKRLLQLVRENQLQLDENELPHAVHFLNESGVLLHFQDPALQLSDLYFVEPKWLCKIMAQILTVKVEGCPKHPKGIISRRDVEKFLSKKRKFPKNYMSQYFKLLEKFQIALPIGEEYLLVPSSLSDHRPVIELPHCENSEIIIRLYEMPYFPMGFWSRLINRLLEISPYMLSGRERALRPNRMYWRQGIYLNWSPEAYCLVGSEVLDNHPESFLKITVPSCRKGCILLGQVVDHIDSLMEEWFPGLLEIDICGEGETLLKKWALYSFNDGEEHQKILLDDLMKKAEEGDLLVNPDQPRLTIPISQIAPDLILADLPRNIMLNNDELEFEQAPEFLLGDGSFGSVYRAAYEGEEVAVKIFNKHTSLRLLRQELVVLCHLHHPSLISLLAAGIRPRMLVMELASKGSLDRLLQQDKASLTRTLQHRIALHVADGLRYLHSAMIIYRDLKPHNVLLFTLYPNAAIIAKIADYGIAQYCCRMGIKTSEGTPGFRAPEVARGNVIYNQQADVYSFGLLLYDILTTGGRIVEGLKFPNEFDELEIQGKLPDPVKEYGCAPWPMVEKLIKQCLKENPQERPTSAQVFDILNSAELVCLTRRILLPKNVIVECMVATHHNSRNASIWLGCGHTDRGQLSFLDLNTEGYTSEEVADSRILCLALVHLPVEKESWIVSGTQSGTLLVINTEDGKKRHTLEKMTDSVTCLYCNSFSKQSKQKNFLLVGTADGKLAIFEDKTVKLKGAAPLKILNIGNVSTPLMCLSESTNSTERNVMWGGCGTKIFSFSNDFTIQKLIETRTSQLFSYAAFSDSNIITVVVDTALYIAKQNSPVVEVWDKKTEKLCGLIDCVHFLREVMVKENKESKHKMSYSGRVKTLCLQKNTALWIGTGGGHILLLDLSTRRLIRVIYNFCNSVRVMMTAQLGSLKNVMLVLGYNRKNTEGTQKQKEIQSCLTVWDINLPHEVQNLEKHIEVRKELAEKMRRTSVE
method-summary: Enzymatic activity inhibition against LRRK2 WT (ADP-Glo kinase assay, LRRKtide substrate)
study-conditions: recombinant LRRK2 WT 36 nM, ATP, 1 h at rt, average Ki
Reported Ki by item:

{"molecule": "Cn1nc(-c2n[nH]c3ccc(OC(F)(F)F)cc23)cc(N2CCOCC2)c1=O", "Ki": "> 100 nM"}
{"molecule": "Cn1nc(-c2n[nH]c3cc4c(cc23)OCCC4)cc(N2CCOCC2)c1=O", "Ki": "50 to 100 nM"}
{"molecule": "CC(C)Oc1ccc2[nH]nc(-c3cc(N4CCOCC4)c(=O)n(C)n3)c2c1", "Ki": "≤ 10 nM"}
{"molecule": "Cn1nc(-c2n[nH]c3ccc(OC4(C)CC4)cc23)cc(N2CCOCC3(CC3)C2)c1=O", "Ki": "≤ 10 nM"}
{"molecule": "N#CC1(c2ccc3cnn(-c4cnnc(N5CCCC5)c4)c3c2)CC1", "Ki": "50 to 100 nM"}
{"molecule": "Cn1nc(-c2n[nH]c3ccc(OC4CC4)cc23)cc(N2CCOCC2)c1=O", "Ki": "≤ 10 nM"}
{"molecule": "CC(C)Oc1ccc2[nH]nc(-c3cc(N4CCOCC4)c(=O)n(C(C)C)n3)c2c1", "Ki": "≤ 10 nM"}
{"molecule": "CC(C)Oc1cccc2[nH]nc(-c3cc(N4CCOCC4)c(=O)n(C)n3)c12", "Ki": "> 100 nM"}
{"molecule": "C[C@@H]1CN(c2cc(-c3n[nH]c4ccc(OC5(C)CC5)cc34)nn(C)c2=O)C[C@H](C)O1", "Ki": "≤ 10 nM"}
{"molecule": "CC(C)Oc1ccc2[nH]nc(-c3cnnc(N4CCOCC4)c3)c2c1", "Ki": "≤ 10 nM"}

# lookup: Ki of CC(C)Oc1ccc2[nH]nc(-c3cnnc(N4CCOCC4)n3)c2c1
≤ 10 nM

Next molecule: CC(C)Oc1ccc2[nH]nc(-c3cnnc(N4CCC(O)C4)c3)c2c1 (stereo in doubt)
10 to 20 nM

Next molecule: N#CC1(c2ccc3cnn(-c4cnnc(N5CCCC5)c4)c3c2)CCCCC1
> 100 nM
